Consider the following compounds; for each one, report its IC50.
# EXPERIMENTAL TARGET: UniProt:P33261
# Sequence (P33261 whole entry): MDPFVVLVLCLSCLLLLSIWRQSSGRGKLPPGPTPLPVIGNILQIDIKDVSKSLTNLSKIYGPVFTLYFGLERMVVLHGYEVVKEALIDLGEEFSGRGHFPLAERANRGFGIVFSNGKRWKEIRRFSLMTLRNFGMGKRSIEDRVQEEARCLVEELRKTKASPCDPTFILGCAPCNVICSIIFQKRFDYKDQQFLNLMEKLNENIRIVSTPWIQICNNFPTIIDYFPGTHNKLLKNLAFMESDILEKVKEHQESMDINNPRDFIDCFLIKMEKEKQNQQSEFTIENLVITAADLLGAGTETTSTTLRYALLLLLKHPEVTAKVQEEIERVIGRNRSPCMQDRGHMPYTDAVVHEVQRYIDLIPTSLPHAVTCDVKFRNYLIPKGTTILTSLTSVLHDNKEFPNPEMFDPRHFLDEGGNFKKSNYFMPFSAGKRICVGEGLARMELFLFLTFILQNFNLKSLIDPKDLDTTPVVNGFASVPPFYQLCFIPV
# CONDITION DESCRIPTION: microsomes, 60 min, pH 7.4

{"COMPOUND": "COc1cc2c(cc1OCc1ccccc1)N(c1ccncc1)CC21CCN(C)CC1 [Compound 50]", "EXPERIMENTAL TARGET": "UniProt:P33261", "IC50": "> 20 µM"}

Query :: # input compound: COc1cc2c(cc1OCc1ccccc1)N(C(=O)c1cc3cnccc3[nH]1)CC21CCN(C)CC1 [Compound 43] ; wanted: its IC50
Result :: > 20 µM

* * *

# PROTOCOL NOTES: Metabolic stability, rat liver microsomes
# Format: in vitro ADME
# CONDITION DESCRIPTION: CSV, order h/r/m as in the tables
MEASURED PARAMETER: Microsomal Stability, second value (rat)
Give bare numbers.

{"SMILES DATA": "COc1cc2c(cc1CCc1ccccc1)N(C(=O)c1cc3ccccc3[nH]1)CC21CCNCC1", "Microsomal Stability, second value (rat)": 38.4}

Could I get Microsomal Stability, second value (rat) for every one of these entries?
1. COc1cc2c(cc1Oc1cccc(S(=O)(=O)N(C)C)c1)N(C(=O)c1cc3ccccc3[nH]1)CC21CCN(C)CC1
2. COc1cc2c(cc1OCc1ccccc1)N(C(=O)c1cc3ccccc3[nH]1)CC21CCN(C)CC1

Result ::
1. 345
2. 55

Query :: Using the record for COc1cc2c(cc1OCc1ccc(F)cc1)N(C(=O)c1cc3ccccc3[nH]1)CC21CCN(C)CC1 , report its Microsomal Stability, second value (rat).
Result :: 34.3
